Could you please report measured IC50 for the items listed next?
# experimental.target: Rac GTPase-activating protein 1 (Homo sapiens)
# Sequence (Q9H0H5 whole entry): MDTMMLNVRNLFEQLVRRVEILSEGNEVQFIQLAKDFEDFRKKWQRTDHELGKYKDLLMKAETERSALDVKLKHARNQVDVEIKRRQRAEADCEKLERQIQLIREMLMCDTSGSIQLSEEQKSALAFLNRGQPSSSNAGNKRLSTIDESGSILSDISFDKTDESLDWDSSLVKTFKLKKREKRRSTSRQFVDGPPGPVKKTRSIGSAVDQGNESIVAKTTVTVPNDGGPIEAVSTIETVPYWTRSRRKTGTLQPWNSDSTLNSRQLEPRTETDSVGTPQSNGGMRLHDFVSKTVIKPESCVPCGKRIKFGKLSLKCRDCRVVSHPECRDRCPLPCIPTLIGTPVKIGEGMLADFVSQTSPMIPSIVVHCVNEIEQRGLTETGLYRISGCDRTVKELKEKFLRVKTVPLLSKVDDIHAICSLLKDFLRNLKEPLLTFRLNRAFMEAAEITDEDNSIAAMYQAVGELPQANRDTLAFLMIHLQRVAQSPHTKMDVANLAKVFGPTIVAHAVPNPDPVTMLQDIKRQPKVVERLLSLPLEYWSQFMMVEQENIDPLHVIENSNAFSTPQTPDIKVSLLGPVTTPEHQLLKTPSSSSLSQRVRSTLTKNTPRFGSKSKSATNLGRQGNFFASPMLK
# test.method.notes: blockers of MgcRacGAP-driven Rac1 GTP hydrolysis – biochemical, ADP Hunter fluorescence, primary and confirmatory, confirmation (AID 624330)
# Format: functional
The source made the active and inactive calls. No rule for the calls is given here.

Can you give me IC50 for all of these, one by one?
1. C=CCn1c(SCC(=O)Nc2ccc(N(C)C)cc2)nnc1-c1cccc(C)c1
2. COc1cccc(-c2ncc3ccccn23)c1
3. COc1ccc(NC(=O)NS(=O)(=O)c2ccc(C)cc2)cc1OC

Response line:
["42.8 µM (active)", "136 µM (active)", "36 µM (active)"]

Provide IC50 for all items below, preserving their order.
1. COc1cc(N=Nc2c(C)n(C)n(-c3ccccc3)c2=O)ccc1N
2. CSc1nc(N)c(N=Nc2ccc([As](=O)(O)O)cc2)c(O)n1

Response line:
1: 43.4 µM (active); 2: 39.9 µM (active)

Please report IC50 for every entry that follows.
1. COc1cccc(Nc2nc(-c3ccc(O)cc3)cs2)c1
2. COc1ccc(NC2CCCN(C(=O)CCc3cccc(F)c3)C2)cc1 (stereo not given)

Response line:
1: 66.1 µM (active); 2: 74.6 µM (active)

Batch: IC50 for all items listed.
1. C=CCc1c(C)nc(-c2ccccc2)nc1Nc1ccc(O)cc1
2. CSc1ccc(CN2CCC(N3CC(C)OC(C)C3)CC2)cc1 (stereo not given)
3. Cc1cc(-c2cc(C)c(N)cc2C)c(C)cc1N

Response line:
1: 38.1 µM (active); 2: 72.4 µM (active); 3: 101 µM (active)
